Taken from PubChem BioAssay (NCI).

# Test system: HCT-15 colon
# assay summary: NCI tumour cell line growth inhibition, 48 h
Where a SMILES comes first, the peptide text is derived from it. [ ]: non-standard residue; d: D form. The star is where a group is joined. Cbz = O=C(OCc1ccccc1)*; Aib = CC(C)(N)C(=O)O
experimental endpoint: TGI

molecule: COc1ccc(/C=C/C(=O)c2ccc(Nc3nc(Nc4ccc(F)cc4)nc(Nc4ccc(F)cc4)n3)cc2)cc1
experimental endpoint: TGI
result: > 100 µM
--
molecule: COc1ccc2c(c1)C=CC1C2CC[C@]2(C)C(NC(=O)/C=C/c3ccc(O)c(O)c3)CCC12 (stereo not given in full)
experimental endpoint: TGI
result: 13.3 µM
--
molecule: NC1=C(O)C(=O)C(c2c[nH]c3ccc(OCc4ccccc4)cc23)O1 (stereo not given)
experimental endpoint: TGI
result: > 100 µM

Which measured TGI belongs to `O=C(NNc1nc(-c2ccccc2)cs1)Nc1ccccc1` , tested on HCT-15 colon?
74.4 µM

Next: `N=C1C=C(N)C(=O)c2ccccc21`
0.578 µM

Would you kindly repeat that for `C1CC[N-]CC1.CC(=N\O)/C(C)=N/O.CC(=N\O)/C(C)=N/O.C[CH-]C(C)O.[Co+2]` ?
> 100 µM

Then this molecule: `CN1CCN(c2nc3cc(F)ccc3n3cccc23)CC1`
> 100 µM

Another molecule: `Cn1cccc1-c1cc(-c2ccccc2)nc(N)c1C#N`
> 100 µM

Then this molecule: CC(C)(NC(=O)C(C)(C)NC(=O)OCc1ccccc1)C(=O)O (Cbz-[Aib]-[Aib]-OH)
> 100 µM

And the next one, `CN(C)Cc1cc(C(C)(C)C)cc(CN(C)C)c1O` ?
> 100 µM

----------
Collected GI50 values appear next to each entry.
# Tested on: OVCAR-5 ovarian
# assay summary: NCI tumour cell line growth inhibition, 48 h

Example molecules with recorded GI50:
structure smiles string: N=C(N)c1ccc(-c2ccc(-c3ccc(Cl)cc3Cl)s2)nc1
result: 1.71 µM
//
structure smiles string: CNc1nc(-c2ccc3c(N)n[nH]c3c2)cc(N2C[C@@H](C(=O)NC3CCCCC3)CC[C@H]2C)n1
result: 3.43 µM
//
structure smiles string: C[C@@H](C[C@H](CCO)c1ccccc1)c1ccc2ccccc2c1
result: 1.57 µM
//
structure smiles string: N#Cc1cc2c(cc1Cl)SC(=Nc1ccccc1)N(S(=O)(=O)c1ccc(Br)s1)S2(=O)=O
result: 19.7 µM

Sample `Cc1cn2cc(-c3ccc4c(c3)CC(=O)N4)nc2s1` — what was its GI50?
> 100 µM

----------
# Tested on: CCRF-CEM leukemia
# assay summary: NCI tumour cell line growth inhibition, 48 h
Measured TGI values are reported for all entries that follow.

Reference set (8 entries):
molecule: Cc1cc(S(=O)(=O)Nc2n[nH]c(Nc3ccccc3)n2)c(SSc2cc(Cl)c(C)cc2S(=O)(=O)Nc2n[nH]c(Nc3ccccc3)n2)cc1Cl
TGI: > 100 µM

molecule: COc1ccc(C2C3=C(COC3=O)N(CCO)c3cc4c(cc32)CCC4)cc1 (stereo not given)
TGI: > 50 µM

molecule: CCSc1nc(N)c2cnn(CC)c2n1
TGI: 10.8 µM

molecule: CCCCCCCCCCOc1ccc(N=Nc2nnc(-c3ccc(OCCCCC)cc3)s2)cc1
TGI: > 100 µM

molecule: CC(C)OP(=O)(OC(C)C)/C(C#N)=C/c1c[nH]c2ccccc12
TGI: > 100 µM

molecule: CC1C(c2ccccc2)NC(c2ccccc2)CC1(N)C#N (stereo not given)
TGI: > 100 µM

molecule: O=c1onc(Nc2ccccc2)n1-c1ccccc1
TGI: > 100 µM

molecule: Cn1c(-c2c(C3=CC(=O)N(c4ccccc4)C3=O)c3ccccc3n2C)cc2ccccc21
TGI: > 100 µM

May I ask what TGI has been recorded for `CCCCCC/C(CC(=O)CCC(=O)NCCc1ccccc1)=N\Nc1ccc([N+](=O)[O-])cc1[N+](=O)[O-]` ?
60.6 µM

Do the same for `Nc1ncc2c(n1)-c1ccccc1OC2` please
> 100 µM
